Molecular target: D(2) dopamine receptor (Homo sapiens, UniProt P14416)
Sequence (P14416 whole entry): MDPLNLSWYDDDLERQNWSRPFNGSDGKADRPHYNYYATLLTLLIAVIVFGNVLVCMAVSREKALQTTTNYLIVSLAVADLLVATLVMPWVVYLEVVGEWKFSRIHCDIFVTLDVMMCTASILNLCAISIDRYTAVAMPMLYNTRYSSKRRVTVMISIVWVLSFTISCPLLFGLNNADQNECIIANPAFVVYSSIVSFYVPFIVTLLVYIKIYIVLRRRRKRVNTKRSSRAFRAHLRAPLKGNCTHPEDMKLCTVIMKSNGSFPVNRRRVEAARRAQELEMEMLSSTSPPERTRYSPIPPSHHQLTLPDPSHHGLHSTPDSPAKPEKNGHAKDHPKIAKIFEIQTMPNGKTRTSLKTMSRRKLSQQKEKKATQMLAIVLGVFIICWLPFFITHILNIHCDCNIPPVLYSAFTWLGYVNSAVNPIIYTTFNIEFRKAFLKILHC
Assay: Antagonist activity at dopamine D2 receptor
Kindly state pIC50 for each of the entries shown.
One number for each entry, as −log10 of the molar value.

O[C@@]1(c2ccc(Cl)cc2)C[C@H]2CC[C@@H](C1)N2Cc1csc2ccccc12 = 7.58

Next item in the queue.
// field: pIC50; key: `O[C@]1(c2ccc(Cl)cc2)C[C@H]2CC[C@@H](C1)N2Cc1c[nH]c2ccccc12` ; value = 7.32

---

Target: D(1A) dopamine receptor (Homo sapiens)
Sequence (P21728 whole entry): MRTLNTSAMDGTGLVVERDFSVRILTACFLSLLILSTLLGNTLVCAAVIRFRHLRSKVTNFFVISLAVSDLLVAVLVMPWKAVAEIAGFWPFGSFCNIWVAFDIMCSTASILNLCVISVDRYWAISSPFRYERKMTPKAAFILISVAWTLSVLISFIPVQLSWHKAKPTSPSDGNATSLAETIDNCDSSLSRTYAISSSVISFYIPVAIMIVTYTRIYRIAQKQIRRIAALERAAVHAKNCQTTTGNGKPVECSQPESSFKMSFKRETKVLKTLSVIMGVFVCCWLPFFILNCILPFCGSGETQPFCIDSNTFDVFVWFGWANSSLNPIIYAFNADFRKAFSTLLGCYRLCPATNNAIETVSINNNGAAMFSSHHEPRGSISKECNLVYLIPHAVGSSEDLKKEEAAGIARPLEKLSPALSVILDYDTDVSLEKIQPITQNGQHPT
Experiment: Displacement of [3H]SCH23390 from dopamine D1 receptor
Give measured Ki for each item. Keep answers brief.
Give bare numbers, in nM.

O[C@@]1(c2ccc(Cl)cc2)C[C@H]2CC[C@@H](C1)N2Cc1csc2ccccc12 = 3000

Below: the item to evaluate.
Item `O[C@]1(c2ccc(Cl)cc2)C[C@H]2CC[C@@H](C1)N2Cc1c[nH]c2ccccc12` ; assay system D(1A) dopamine receptor (Homo sapiens); Ki reported as 1220

---

Molecular target: D(4) dopamine receptor (Homo sapiens)
Sequence (P21917 whole entry): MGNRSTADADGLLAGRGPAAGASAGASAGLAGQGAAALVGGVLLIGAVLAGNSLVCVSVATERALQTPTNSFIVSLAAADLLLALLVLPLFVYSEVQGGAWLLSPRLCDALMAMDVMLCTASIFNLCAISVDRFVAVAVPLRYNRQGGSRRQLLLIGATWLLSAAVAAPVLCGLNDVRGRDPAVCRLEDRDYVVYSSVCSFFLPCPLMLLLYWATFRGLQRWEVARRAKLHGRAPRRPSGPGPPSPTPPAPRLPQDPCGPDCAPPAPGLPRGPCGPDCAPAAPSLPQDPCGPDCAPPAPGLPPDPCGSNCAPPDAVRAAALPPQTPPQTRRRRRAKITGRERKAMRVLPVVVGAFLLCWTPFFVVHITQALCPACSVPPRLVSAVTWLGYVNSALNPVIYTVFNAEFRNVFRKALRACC
Could you please report measured Ki for the items listed next?
One number for each entry, in µM.

O[C@@]1(c2ccc(Cl)cc2)C[C@H]2CC[C@@H](C1)N2Cc1csc2ccccc12 = 0.14

Okay, now this compound:
The reported Ki of the compound `OC1(c2ccc(Cl)cc2)CCN(Cc2c[nH]c3ccccc23)CC1` was 1.1

---

Target: D(3) dopamine receptor (Homo sapiens)
Sequence (P35462 whole entry): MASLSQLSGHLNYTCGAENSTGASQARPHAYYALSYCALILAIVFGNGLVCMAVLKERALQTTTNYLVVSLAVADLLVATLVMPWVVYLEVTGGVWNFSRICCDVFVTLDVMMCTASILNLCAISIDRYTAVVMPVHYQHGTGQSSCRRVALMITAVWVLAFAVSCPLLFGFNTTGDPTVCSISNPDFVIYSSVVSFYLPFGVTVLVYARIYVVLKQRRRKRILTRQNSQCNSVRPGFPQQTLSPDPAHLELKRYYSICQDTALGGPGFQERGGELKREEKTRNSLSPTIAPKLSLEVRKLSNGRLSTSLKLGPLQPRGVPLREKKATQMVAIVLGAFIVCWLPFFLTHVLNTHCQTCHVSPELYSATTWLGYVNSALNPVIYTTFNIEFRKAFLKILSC
measure name: pKi
Give bare numbers, as −log10 of the molar value.

Hey, can you go through the list below and give me pKi for every item?
1. O[C@@]1(c2ccc3ccccc3c2)C[C@H]2CC[C@@H](C1)N2Cc1c[nH]c2ccccc12
2. O[C@@]1(c2ccc(Cl)cc2)C[C@H]2CC[C@@H](C1)N2Cc1coc2ccc(F)cc12
3. COc1ccc2[nH]cc(CN3[C@@H]4CC[C@H]3C[C@](O)(c3ccc(SC)cc3)C4)c2c1

Reply:
[6.65, 9.43, 5.92]

Hi there! I need pKi for each item below, if you can.
1. O[C@@]1(c2ccc(Cl)cc2)C[C@H]2CC[C@@H](C1)N2Cc1coc2ccc3ccccc3c12
2. O[C@@]1(c2ccc(F)cc2)C[C@H]2CC[C@@H](C1)N2Cc1coc2ccccc12
3. COc1ccc2occ(CN3[C@@H]4CC[C@H]3C[C@](O)(c3ccc(Cl)cc3)C4)c2c1 (single isomer, unassigned)
4. O[C@@]1(c2ccc(Cl)c(Cl)c2)C[C@H]2CC[C@@H](C1)N2Cc1c[nH]c2ccccc12

Reply:
1. 8.08
2. 8.92
3. 8.68
4. 8.20

Give pKi for all molecules that follow.
1. O[C@@]1(c2ccc(Cl)cc2)C[C@H]2CC[C@@H](C1)N2Cc1csc2ccccc12
2. COc1ccccc1[C@]1(O)C[C@H]2CC[C@@H](C1)N2Cc1c[nH]c2ccccc12

Reply:
1. 8.44
2. 5.19
